Molecular target: T1, human PD-1-His protein (human, UniProt Q15116 25-167, limits assumed)
T1 construct: also called huPD-1; not shown: His tag
T1 sequence (Q15116 25-167 limits assumed): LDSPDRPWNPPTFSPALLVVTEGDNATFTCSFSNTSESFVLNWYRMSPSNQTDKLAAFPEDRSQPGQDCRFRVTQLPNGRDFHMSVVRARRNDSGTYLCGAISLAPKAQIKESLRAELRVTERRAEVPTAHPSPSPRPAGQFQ
Assay: SPR Biacore
Quantity: Kd (nM)
The response must be a number in nM with no trailing unit.

mAb713c (antibody, V domains shown, also called mAb73c) VH: EVKLVESGGGLVKPGGSLELSCAASGFTSSDYGMHWVRQAPEKGLEWVAYISSGSYTIYYADTVKGRFTISRDNAKNTLFLQMTSLRSEDTAMYYCAKRGGSSHVNVMDYWGQGTSVTVSS VL: DIQMTQSSSYLSVSLGGRVTITCKASDHINNWLAWYQQKPGNAPRLLISGATSLETGVPSRFSGSGSGKDYTLSITSLQTEDVATYYCQQYWSPPYTFGGGTKLEIK; 1.3
HumAb713-11 (antibody, human IgG1, kappa, L234A L235A, V domains shown, humanized mAb713) VH: EVQLVESGGGLVQPGGSLRLSCAASGFTSSDYGMHWVRQAPGKGLEWVSYISSGSYTIYYADTVKGRFTISRDNAKNSLYLQMNSLRDEDTAVYYCAKRGGSSHVNVMDYWGQGTTVTVSS VL: DIQMTQSPSSLSASVGDRVTITCKASDHINNWLAWYQQKPGKAPKLLISGATSLETGVPSRFSGSGSGTDYTFTISSLQPEDIATYYCQQYWSPPYTFGGGTKVEIKR; 2.37

API: the following record is the query input.
Exam item: For the binder shown here, HumAb713-7 (antibody, human IgG1, kappa, L234A L235A, V domains shown, humanized mAb713) VH: EVQLVESGGGLVQPGGSLRLSCAASGFTSSDYGMHWVRQAPGKGLEWVSYISSGSYTIYYADTVKGRFTISRDNAKNSLYLQMNSLRDEDTAVYYCAKRGGSSHVNVMDYWGQGTTVTVSS VL: DIQMTQSPSSLSASVGDRVTITCKASDHINNWLAWYQQKPGKAPKLLIYGATSLETGVPSRFSGSGSGTDYTFTISSLQPEDIATYYCQQYWSPPYTFGGGTKVEIKR , give the reported Kd.
Marked response: 2.83
